experiment: soluble on expression in E. coli; label from the status in PepcDB or PDB records
QUANTITY_MEASURED: soluble on expression in E. coli

MPSIYKSVTINTSKEMMCFSDFPVPDHFPNYMHNSKLMDYFGMYATHFGLLNYIRFKTEVQSVRKHPDFSINGQWDVVVETEEKQETLVFDGVLVCSGHHTDPYLPLQSFPGIEKFEGCYFHSREYKSPEDFSGKRIIVIGIGNSGVDIAVELSRVAKQI
not soluble
MSTLLPFPCEEKIPEGKYVLRTFEIKEGQVKEKLKDLNYEILASLSGVDLTFEKEEEWKKAKEILSDYVYTDRPESLEETLGRILKEKGFTLSTAESCTAGMLSSRIVNVPGSSEYFVGGFVVYSNDLKVKYLCVSEDTLKKYGAVSWQTCLEMTVGLKSNLGTDCGIAITGIAGPGGTLTKPQGLTYIGIFVKDKLTVIKRIFKGSRNENRFLSTQTAIFYLLKLLKR
soluble
MSLSCLFLQSAGEMLQNCAQSNCRIIPKKLRDMKREEICRLLADKVNKLKNKENSLSELLPDVRLLYGETPFARTPVMYEPGIIILFSGHKIGYINERVFRYDANEYLLLTVPLPFECETYATSEVPLAGLRLNVDILQLQELLMDIGEDEHFQPSMAASGINSATLSEEILCAAERLLDVMERPLDARILGKQIIREILYYVLTGPCGGALLALVSRQTHFSLISRVLKRIENKYTENLSVEQLAAEANMSVSAFHHNFKSVTSTSPLQYLKNYRLHKARMMIIHDGMKASAAAMRVGYESASQFSREFKRYFGVTPGEDAARMRAMQGNEGHHHHHH
soluble
MGSDKIHHHHHHMVKHHCRMVFKFKLGFFTDLHGSEYSFKRSLNIAKSKRVDFLIISGGLIAKEILFVEDIGGRYFLNGKKVNLNNLNEDALRSGKYIVVDKKEVIEDIKSDKSKLEKIVIEKASEQMSRWVKIAEEIFRLEKVFWSPAHGDIPQLDSILKNYGSNLINENVINLEEIQIVSLGFGSPIGNSYREIPDSELYIKGKSLLKDADKERLIMNFHMPPLNTKLDNAKVGLRKSHVGSKAVLDLITEFQPIISLHGHVHESTSMDKVGETIAINPGSLYQLGDPSIVTFEVHKELKSFGSVNVSKYVIKNIEFVSTNPLDVI
not soluble

// next item, soluble on expression in E. coli requested
Query string: Endpoint output: soluble on expression in E. coli of MAHHHHHHMALTQSSGEPLRSMQGGVGGVSYADGAGQAPEHINRASATPVLTEEAVQSSIETFEDAACVREEAVRSYAEFHNNVESLHATMHTQLRPVWRTAMQLRPEILSDVRDEWCLRRRDNIPDGIPIPAAAAQHIALQETILSEVEDMLQVLRNTSVRFAAHFLSDEEKISMGANPAYLRAPDIDKEVVVSRSQSTSTSPQRALPASVMSVSSSAGAVASAPIKPSASSAATAAVHTPREGHSRHHQGSYVQHHHHHSDDEAGLVSSSSNRHVCSGKSSCGSRSAGEDPLLEELRKQYQLRIRELKAQSEAGASRRSEHGASQSAAAPPPRRGNRARVAASRSLSLPSWASSASASVLTSSSSTVSRR . Value?
Result string: soluble

Data provenance is the DeepSol protein solubility set.
